Form: system (Cyclin-dependent kinase 2 (Homo sapiens, UniProt P24941)), quantity (IC50), values below.

| entry.smiles | IC50 |
| --- | --- |
| Nc1nccc(-n2ccc3ccc([N+](=O)[O-])cc32)n1 | > 30.6 µM |
| Nc1nccc(-n2cc(-c3cccnc3Cl)c3cnc(Cl)cc32)n1 | > 83 µM |
| N#Cc1cc2c(ccn2-c2ccnc(N)n2)cn1 | > 44 µM |
| N#Cc1ccc2ccn(-c3cccc(N)n3)c2c1 | 45 µM |
| Nc1nccc(-n2ccc3cccnc32)n1 | 42 µM |

Quick batch: IC50 for everything below.
1. C#Cc1ccc2ccn(-c3ccnc(N)n3)c2c1
2. N#Cc1ccc2ccn(-c3cc(N)ncn3)c2c1
3. N#Cc1ccc2ccn(-c3ccnc(N)n3)c2c1
4. Nc1nccc(-n2cc(-c3ccccc3Cl)c3cnccc32)n1

Response:
1. 10 µM
2. > 83 µM
3. 16.5 µM
4. 0.11 µM

====

Exercise: for every item that follows, state its recorded IC50.
Molecular target: Cell division cycle 7-related protein kinase (Homo sapiens, UniProt O00311)
Sequence (O00311 whole entry): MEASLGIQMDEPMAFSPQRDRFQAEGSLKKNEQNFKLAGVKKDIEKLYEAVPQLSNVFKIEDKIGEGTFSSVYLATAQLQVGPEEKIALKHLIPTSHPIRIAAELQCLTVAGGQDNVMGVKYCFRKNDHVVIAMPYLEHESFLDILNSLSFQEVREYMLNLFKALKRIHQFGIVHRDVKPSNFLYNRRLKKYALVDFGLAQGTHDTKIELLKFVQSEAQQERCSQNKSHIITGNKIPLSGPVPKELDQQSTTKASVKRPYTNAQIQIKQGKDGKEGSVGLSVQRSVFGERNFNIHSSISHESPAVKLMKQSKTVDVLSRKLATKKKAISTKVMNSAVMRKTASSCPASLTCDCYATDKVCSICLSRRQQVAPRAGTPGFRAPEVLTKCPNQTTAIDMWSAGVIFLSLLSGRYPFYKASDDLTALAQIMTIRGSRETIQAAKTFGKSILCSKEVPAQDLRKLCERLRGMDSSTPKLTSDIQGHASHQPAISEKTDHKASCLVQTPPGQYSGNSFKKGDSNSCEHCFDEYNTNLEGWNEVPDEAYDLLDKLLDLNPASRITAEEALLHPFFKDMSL
Test: Inhibition of CDC7 (unknown origin)
Give bare numbers, in µM.

Quick batch: IC50 for everything below.
1. Nc1nccc(-n2ccc3ccccc32)n1
2. N#Cc1ccc2ccn(-c3ccncn3)c2c1
3. N#Cc1ccc2ccn(-c3cc(N)ncn3)c2c1
4. Nc1nccc(-n2ccc3cccnc32)n1
5. Nc1nccc(-n2ccc3ccncc32)n1
6. Nc1nccc(-n2ccc3cnccc32)n1
7. N#Cc1ccc2ccn(-c3nccc(N)n3)c2c1
8. C#Cc1ccc2ccn(-c3ccnc(N)n3)c2c1

Response:
1. 4.7
2. 1.5
3. 2.7
4. 26.7
5. 0.93
6. 0.98
7. 8.8
8. 0.76

Quick batch: IC50 for everything below.
1. Nc1nccc(-n2cc(-c3ccc(Cl)cc3)c3cnccc32)n1
2. N#Cc1cnc2ccn(-c3ccnc(N)n3)c2c1

Response:
1: 0.33; 2: 5.3

====

Exercise: for every item that follows, state its recorded Ratio IC50.
Species: Homo sapiens
Experiment: Selectivity ratio of IC50 for CDK2 (unknown origin) to IC50 for CDC7 (unknown origin)
Answers are plain numbers.

The cases that follow already have their Ratio IC50 on record.
| entry.smiles | Ratio IC50 |
| --- | --- |
| N#Cc1ccc2ccn(-c3ccnc(N)n3)c2c1 | 220 |
| Nc1nccc(-n2cc(-c3cccnc3Cl)c3cnccc32)n1 | 44 |

Quick batch: Ratio IC50 for everything below.
1. Nc1nccc(-n2cc(-c3ccccc3)c3cnccc32)n1
2. Nc1nccc(-n2cc(-c3cccnc3)c3cnccc32)n1

Response:
3
7

Query: Please give the measured Ratio IC50 for this molecule: Nc1nccc(-n2ccc3ccc(Cl)cc32)n1
Response: 56

====

Experiment: Intrinsic clearance in human liver microsomes
Type: ADME, Microsome
Conditions: read-out: CLH
result.type: microsomal CLint (µL/min/mg)
Answers are plain numbers, in µL/min/mg.

Quick batch: microsomal CLint for everything below.
1. Nc1nccc(-n2ccc3ccccc32)n1
2. Nc1nccc(-n2ccc3ccncc32)n1

Response:
387
134

====

Assay: Intrinsic clearance in rat liver microsomes
Assay type: ADME, Microsome
Conditions: read-out: CLH
Exercise: for every item that follows, state its recorded microsomal CLint.
Answers are plain numbers, in µL/min/mg.

| entry.smiles | result.type | unit.of.measure | observed.value |
| --- | --- | --- | --- |
| N#Cc1ccc2ccn(-c3cc(N)ncn3)c2n1 | microsomal CLint | µL/min/mg | 46 |
| Nc1nccc(-n2ccc3cccnc32)n1 | microsomal CLint | µL/min/mg | 282 |
| N#Cc1ccc2ccn(-c3ccnc(N)c3)c2c1 | microsomal CLint | µL/min/mg | 122 |
| Nc1nccc(-n2ccc3ccccc32)n1 | microsomal CLint | µL/min/mg | 375 |

Quick batch: microsomal CLint for everything below.
1. Nc1nccc(-n2cc(-c3cccnc3Cl)c3cnc(Cl)cc32)n1
2. N#Cc1cnc2ccn(-c3ccnc(N)n3)c2c1

Response:
[102, 64]

====

Exercise: for every item that follows, state its recorded microsomal CLint.
Test: Intrinsic clearance in rat liver microsomes
Format: ADME, Microsome
Conditions: read-out: CLH
Numbers only, in µL/min/mg.

The cases that follow already have their microsomal CLint on record.
| entry.smiles | microsomal CLint / µL/min/mg |
| --- | --- |
| N#Cc1cc2c(ccn2-c2ccnc(N)n2)cn1 | 49 |
| Nc1nccc(-n2ccc3cnccc32)n1 | 101 |
| N#Cc1ccc2ccn(-c3ccnc(N)n3)c2c1 | 124 |
| Nc1nccc(-n2cc(-c3cccnc3Cl)c3cnccc32)n1 | 72 |
| Nc1nccc(-n2ccc3cnc(Cl)cc32)n1 | 134 |

Quick batch: microsomal CLint for everything below.
1. Nc1nccc(-n2ccc3ncccc32)n1
2. Nc1nccc(-n2ccc3ccncc32)n1

Response:
[50, 64]

====

Exercise: for every item that follows, state its recorded IC50.
Biological target: Cell division cycle 7-related protein kinase (Homo sapiens)
Test: Inhibition of CDC7 in human HCT116 cells assessed as MCM2 phosphorylation
Type: cell-based, HCT-116
Answers are plain numbers, in µM.

| entry.smiles | result.type | unit.of.measure | observed.value |
| --- | --- | --- | --- |
| Nc1nccc(-n2cc(-c3cccnc3Cl)c3cnc(Cl)cc32)n1 | IC50 | µM | 2.3 |

Quick batch: IC50 for everything below.
1. N#Cc1ccc2ccn(-c3ccnc(N)n3)c2c1
2. Nc1nccc(-n2cc(-c3cccnc3Cl)c3cnccc32)n1
3. N#Cc1ccc2ccn(-c3cc(N)ncn3)c2n1

Response:
[5, 0.85, 1.37]

====

Biological target: Cell division cycle 7-related protein kinase (Homo sapiens, UniProt O00311)
Assay: Inhibition of CDC7 (unknown origin)
Exercise: for every item that follows, state its recorded pIC50.
Give bare numbers, as −log10 of the molar value.

| entry.smiles | pIC50 |
| --- | --- |
| Nc1nccc(-n2cc(-c3ccoc3)c3cnccc32)n1 | 6.92 |
| Nc1nccc(-n2cc(-c3ccccc3)c3cnccc32)n1 | 6.98 |
| Nc1nccc(-n2ccc3ncccc32)n1 | 4.90 |
| N#Cc1ccc2ccn(-c3cc(N)ncn3)c2n1 | 8.05 |
| N#Cc1ccc2ccn(-c3cccc(N)n3)c2c1 | 4.98 |

Quick batch: pIC50 for everything below.
1. Nc1nccc(-n2cc(-c3cccc(Cl)c3)c3cnccc32)n1
2. Nc1nccc(-n2cc(-c3cccnc3Cl)c3cnccc32)n1
3. Nc1nccc(-n2ccc3ccc(F)cc32)n1
4. Nc1nccc(-n2ccc3ccc(Br)cc32)n1
5. Nc1nccc(-n2ccc3ccc(Cl)cc32)n1
6. Nc1nccc(-n2cc(-c3cccnc3Cl)c3cnc(Cl)cc32)n1

Response:
[6.80, 8.15, 6.81, 6.46, 7.18, 7.52]

Quick batch: pIC50 for everything below.
1. Nc1nccc(-n2ccc3cnc(Cl)cc32)n1
2. Nc1nccc(-n2cc(-c3cccnc3)c3cnccc32)n1

Response:
[6.44, 6.80]

====

Target: Cyclin-dependent kinase 2 (Homo sapiens)
Exercise: for every item that follows, state its recorded IC50.

The cases that follow already have their IC50 on record.
| entry.smiles | IC50 |
| --- | --- |
| Nc1nccc(-n2cc(C3=CCOCC3)c3cnccc32)n1 | 160 nM |
| Nc1nccc(-n2ccc3ncccc32)n1 | 21000 nM |
| Nc1nccc(-n2cc(-c3cc[nH]n3)c3cnccc32)n1 | 550 nM |

Quick batch: IC50 for everything below.
1. Nc1nccc(-n2ccc3cnc(Cl)cc32)n1
2. N#Cc1ccc2ccn(-c3ccncn3)c2c1
3. Nc1nccc(-n2ccc3ccc(C(F)(F)F)cc32)n1
4. Nc1nccc(-n2cc(-c3ccoc3)c3cnccc32)n1
5. Nc1nccc(-n2cc(-c3ccncc3)c3cnccc32)n1

Response:
38000 nM
> 83000 nM
17000 nM
100 nM
160 nM

====

Target: Cell division cycle 7-related protein kinase (Homo sapiens)
Assay: Inhibition of CDC7 (unknown origin)
pIC50: −log10 of the molar value.
Criterion: pIC50 meeting or surpassing 7. Met: YES. Not met: NO.

Example entries and their recorded answers appear below.
| entry.smiles | tested.system | group |
| --- | --- | --- |
| Nc1nccc(-n2ccc3ccc(C(F)(F)F)cc32)n1 | Cell division cycle 7-related protein kinase (Homo sapiens) | NO |
| N#Cc1ccc2c(ccn2-c2ccnc(N)n2)c1 | Cell division cycle 7-related protein kinase (Homo sapiens) | NO |
| Nc1nccc(-n2cc(-c3ccccc3Cl)c3cnccc32)n1 | Cell division cycle 7-related protein kinase (Homo sapiens) | YES |
| N#Cc1ccc2ccn(-c3ccnc(N)c3)c2c1 | Cell division cycle 7-related protein kinase (Homo sapiens) | NO |
| Nc1nccc(-n2cc(-c3cc[nH]n3)c3cnccc32)n1 | Cell division cycle 7-related protein kinase (Homo sapiens) | NO |
| N#Cc1cc2c(ccn2-c2ccnc(N)n2)cn1 | Cell division cycle 7-related protein kinase (Homo sapiens) | NO |
| CNc1nccc(-n2ccc3ccc(C#N)cc32)n1 | Cell division cycle 7-related protein kinase (Homo sapiens) | YES |
| Nc1nccc(-n2cc(-c3ccncc3)c3cnccc32)n1 | Cell division cycle 7-related protein kinase (Homo sapiens) | NO |

Here is another compound to look at.
Query: Does pIC50 meet or surpass 7 for Nc1nccc(-n2ccc3ccc(O)cc32)n1 ?
Response: NO
